test: Solubility in pH 7.4 buffer; type: physicochemical
measurement_kind: solubility (µg/mL)

I: NC(=O)c1cc2c(Oc3ccc(CO)cc3)cncc2s1
II: CNC(=O)c1cc2c(Oc3ccc(COC)cc3)cncc2s1
Query :: Pick one, I or II : lowest reported solubility. API: response body contains the label of the selected item.
Result :: II

###

experiment: Toxicity in HUVEC cell lysates.; format: cell-based, Lysate; details: human
measurement_kind: IC50

CNC(=O)c1cc2c(Oc3ccc(-n4ccnc4)cc3)cncc2s1	> 10 µM
CC(C)c1ccc(Oc2cncc3sc(C(N)=O)cc23)cc1	34 µM
NC(=O)c1cc2c(Oc3ccc(Br)cc3)cncc2s1	> 100 µM

Query :: Note IC50 for the molecule shown: CCOCCOCCOCC1(c2ccc(Oc3cncc4sc(C(=O)NC)cc34)cc2)CC1
Result :: > 10 µg/mL

Query :: Note IC50 for the molecule shown: CNC(=O)c1cc2c(Oc3ccc(C(=N)NO)cc3)cncc2s1
Result :: > 10 µM

Query :: Note IC50 for the molecule shown: Cc1ccc(Oc2cncc3sc(C(N)=O)cc23)cc1
Result :: 91 µM

###

biological target: Intercellular adhesion molecule 1 (Homo sapiens); assay: Inhibition of intercellular adhesion molecule-1 (ICAM1) in human endothelial cells; format: cell-based, Endothelial cell
Sequence (P05362 whole entry): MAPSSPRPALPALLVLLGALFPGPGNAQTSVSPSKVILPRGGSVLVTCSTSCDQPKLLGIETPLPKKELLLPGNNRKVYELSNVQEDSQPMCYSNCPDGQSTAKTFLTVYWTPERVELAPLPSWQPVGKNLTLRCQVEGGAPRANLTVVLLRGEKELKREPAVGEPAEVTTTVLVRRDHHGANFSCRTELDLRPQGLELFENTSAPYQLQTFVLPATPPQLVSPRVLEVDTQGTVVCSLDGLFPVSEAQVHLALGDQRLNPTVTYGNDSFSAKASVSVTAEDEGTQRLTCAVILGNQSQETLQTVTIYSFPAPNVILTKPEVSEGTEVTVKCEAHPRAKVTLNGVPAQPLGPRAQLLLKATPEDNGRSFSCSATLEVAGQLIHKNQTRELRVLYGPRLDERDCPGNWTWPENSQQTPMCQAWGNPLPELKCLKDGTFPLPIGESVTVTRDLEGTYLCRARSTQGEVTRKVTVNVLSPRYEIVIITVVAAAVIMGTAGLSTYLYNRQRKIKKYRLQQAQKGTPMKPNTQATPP
pIC50: −log10 of the molar value.
measurement_kind: pIC50

CCOC(=O)c1ccc(Oc2cncc3sc(C(N)=O)cc23)cc1	7.74
COCCOCc1ccc(Oc2cncc3sc(C(N)=O)cc23)cc1	8.22
NC(=O)c1cc2c(Oc3ccc(N)cc3)cncc2s1	7.38
CNC(=O)c1cc2c(Oc3ccc(C(=O)NCCN4CCOCC4)cc3)cncc2s1	6.14

P: CC(C)c1ccc(Oc2cncc3sc(C(N)=O)cc23)cc1
Q: NC(=O)c1cc2c(Oc3ccc(/C=C/C(=O)NCC(O)CO)cc3)cncc2s1 (centres undefined)
R: NC(=O)c1cc2c(Oc3ccc(C(=O)N(C(=O)NC4CCCCC4)C4CCCCC4)cc3)cncc2s1
S: CNC(=O)c1cc2c(Oc3ccc(COCCOC)cc3)cncc2s1
T: CNC(=O)c1cc2c(Oc3ccc(-c4noc(C(F)(F)F)n4)cc3)cncc2s1
Query :: Sort the molecules on pIC50; start with the lowest figure. Returns: the labels arranged in the requested order.
Result :: Q, R, P, T, S
(Q: 6.10, R: 6.94, P: 7.33, T: 7.66, S: 8.10)

A: CCOC(=O)c1cccc(Oc2cncc3sc(C(N)=O)cc23)c1
B: CCOCCOCCOCC(F)(F)c1ccc(Oc2cncc3sc(C(=O)NC)cc23)cc1
C: NC(=O)c1cc2c(Oc3ccc(I)cc3)cncc2s1
D: NC(=O)c1cc2c(Oc3cccc(Br)c3)cncc2s1
Query :: List items by pIC50 in falling order. Returns: the labels arranged in the requested order.
Result :: C, B, D, A

###

test: Inhibition of selectin E in human endothelial cells; settings: endothelial cell
measurement_kind: IC50 (nM)
Express your answer in nM, writing the number without its unit.

Query :: Note IC50 for the molecule shown: Cc1ccc(Sc2cncc3sc(C(N)=O)cc23)cc1
Result :: 20

###

target: E-selectin (Homo sapiens); assay: In vitro inhibitory potency compared to TNF-alpha induced Selectin E in human endothelial cells (ELISA assay); assay type: cell-based, Endothelial cell
Sequence (P16581 whole entry): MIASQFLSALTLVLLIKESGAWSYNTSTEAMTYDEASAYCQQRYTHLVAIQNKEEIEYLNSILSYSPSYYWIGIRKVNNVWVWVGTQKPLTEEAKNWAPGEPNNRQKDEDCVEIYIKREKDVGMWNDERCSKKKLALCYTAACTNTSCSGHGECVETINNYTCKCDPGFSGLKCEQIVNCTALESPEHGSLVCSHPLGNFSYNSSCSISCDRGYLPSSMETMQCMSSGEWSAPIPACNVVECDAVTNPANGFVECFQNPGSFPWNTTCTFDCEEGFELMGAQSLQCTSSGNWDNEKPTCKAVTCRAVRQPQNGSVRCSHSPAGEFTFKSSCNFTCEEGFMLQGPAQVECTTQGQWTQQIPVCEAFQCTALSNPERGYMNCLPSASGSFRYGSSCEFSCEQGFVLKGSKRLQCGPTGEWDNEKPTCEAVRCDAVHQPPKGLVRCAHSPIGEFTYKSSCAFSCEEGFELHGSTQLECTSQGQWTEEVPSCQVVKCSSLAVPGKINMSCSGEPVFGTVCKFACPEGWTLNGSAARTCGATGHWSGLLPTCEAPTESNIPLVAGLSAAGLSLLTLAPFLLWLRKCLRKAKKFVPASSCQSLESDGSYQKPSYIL
measurement_kind: pIC50
Scale: pIC50 equals -log10([C]), with [C] in mol/L.

Query :: Note pIC50 for the compound shown: CNC(=O)c1cc2c(Oc3ccc(COCCOCCOC)cc3)cncc2s1
Result :: 8.40
